Recorded IC50 cell viability, one value per entry.
Tested on: HCT116
Settings: 72 h; ICRF193 0 nM
Structures can show the parent of a compound that is named as a salt.

| molecule | target-or-test-system | IC50 cell viability |
| --- | --- | --- |
| COc1ccc(CN(C(=O)[C@@H](N)Cc2c(C)cc(C(N)=O)cc2C)[C@@H](C)c2ncc(-c3ccccc3)[nH]2)cc1C(=O)O | HCT116 | > 45.8 µM |
| Cc1c(Nc2ncccc2C(=O)O)cccc1C(F)(F)F | HCT116 | > 45.8 µM |
| Cc1ccc(Nc2c(F)cccc2Cl)c(CC(=O)O)c1 | HCT116 | > 45.8 µM |
| C1CNCCN1 | HCT116 | > 45.8 µM |
| CC(C)C(=O)OCc1cccc(OC(=O)[C@@H]2N3C(=O)[C@@H](NC(=O)Cc4ccccc4)[C@H]3SC2(C)C)c1 | HCT116 | 29.1 µM |
| CN[C@@H]1[C@H](O[C@H]2[C@H](O[C@H]3[C@H](O)[C@@H](O)[C@H](N=C(N)N)[C@@H](O)[C@@H]3N=C(N)N)O[C@@H](C)[C@]2(O)C=O)O[C@@H](CO)[C@H](O)[C@H]1O [Streptomycin sulfate] | HCT116 | > 45.8 µM |
| CC(C)(O)C(Cl)(Cl)Cl | HCT116 | > 45.8 µM |
| C#CC1(O)CC[C@H]2[C@@H]3CCC4=CC(=O)CC[C@@H]4[C@H]3CC[C@@]21CC (some centres not stated) | HCT116 | > 45.8 µM |
| CC/C(=C(\c1ccccc1)c1ccc(OCCN(C)C)cc1)c1ccccc1 | HCT116 | 23.1 µM |
| N.N.O=C([O-])C[O-].[Pt+2] | HCT116 | > 45.8 µM |
| CC1=CC(=C(c2ccc(N)cc2)c2ccc(N)cc2)C=CC1=N | HCT116 | 10.3 µM |
| CC[N+]1(C)[C@@H]2CC(OC(=O)[C@H](CO)c3ccccc3)C[C@H]1[C@@H]1O[C@@H]12 (some centres not stated) [Oxitropium Bromide] | HCT116 | > 45.8 µM |

---

System: HCT116
Experiment: efficacy (maximum % inhibition of viability vs DMSO); higher = more cytotoxic
Settings: 72 h; ICRF193 200 nM
Counter-ions that a name gives are not always drawn.
Quick reference for efficacy among some compounds
observed-property: efficacy

| compound | observed-property | result |
| --- | --- | --- |
| CCN(CC)CCNC(=O)c1c(C)[nH]c(/C=C2\C(=O)Nc3ccc(F)cc32)c1C [Sunitinib malate] | efficacy | 111% |
| COc1ccc(CCN2CCC(Nc3nc4ccccc4n3Cc3ccc(F)cc3)CC2)cc1 [Astemizole] | efficacy | 102% |
| CO[C@H]1C[C@H](O[C@@H]2/C(C)=C/C[C@@H]3C[C@@H](C[C@]4(CC[C@H](C)[C@@H](C5CCCCC5)O4)O3)OC(=O)[C@@H]3C=C(C)/C(=N/O)[C@H]4OC/C(=C\C=C\[C@@H]2C)[C@]43O)O[C@@H](C)[C@@H]1O [SELAMECTIN] | efficacy | 109% |
| CC(C)(C)NC(=O)[C@@H]1C[C@@H]2CCCC[C@@H]2CN1C[C@@H](O)[C@H](Cc1ccccc1)NC(=O)[C@H](CC(N)=O)NC(=O)c1ccc2ccccc2n1 [Saquinavir] | efficacy | 108% |
| CC(C)c1cc2c(cc1S(=O)(=O)O)[C@@]1(C)CCC[C@@](C)(C(=O)O)[C@@H]1CC2 [Ecabet] | efficacy | 63.3% |
| Cc1cc(-n2c(=O)[nH]c(=O)n(C)c2=O)ccc1Oc1ccc(SC(F)(F)F)cc1 [TOLTRAZURIL] | efficacy | 41.6% |
| CCOC1O[C@H]([C@@H](COCc2ccccc2)OCc2ccccc2)[C@H](OCc2ccccc2)[C@H]1O (stereo partly specified) [Tribenoside] | efficacy | 92.1% |
| CN(C)c1ccc(C(=C2C=CC(=[N+](C)C)C=C2)c2ccccc2)cc1 [Malachite green oxalate] | efficacy | 96% |
| O[C@@H](CNC[C@H](O)[C@H]1CCc2cc(F)ccc2O1)[C@@H]1CCc2cc(F)ccc2O1 (racemic) [rac Nebivolol hydrochloride] | efficacy | 98.2% |
| CC(C)NCC(O)COc1ccc(CCOCC2CC2)cc1 (stereo unspecified) [Betaxolol HCl] | efficacy | 76.2% |
| C#C[C@]1(OC(C)=O)CC[C@H]2[C@@H]3CCC4=CC(=NO)CC[C@@H]4[C@H]3CC[C@@]21CC (mixture of isomers) [Norgestimate] | efficacy | 102% |
